EXPERIMENTAL TARGET: Coagulation factor X (Homo sapiens)
Sequence (P00742 41-179 limits assumed): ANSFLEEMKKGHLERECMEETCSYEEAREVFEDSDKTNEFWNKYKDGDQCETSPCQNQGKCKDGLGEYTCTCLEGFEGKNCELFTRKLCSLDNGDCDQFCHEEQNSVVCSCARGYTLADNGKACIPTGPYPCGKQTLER
Sequence (P00742 235-488 limits assumed): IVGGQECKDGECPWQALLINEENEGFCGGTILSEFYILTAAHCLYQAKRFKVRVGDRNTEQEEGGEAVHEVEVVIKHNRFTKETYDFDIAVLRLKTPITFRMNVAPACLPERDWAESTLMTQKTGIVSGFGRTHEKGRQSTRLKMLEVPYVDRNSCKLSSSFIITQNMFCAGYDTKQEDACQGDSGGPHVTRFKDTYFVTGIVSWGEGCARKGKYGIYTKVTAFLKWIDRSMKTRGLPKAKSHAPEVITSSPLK
MEASUREMENT PROTOCOL: In vitro inhibition of coagulation factor Xa.
pIC50: −log10 of the molar value.
Where pIC50 equals or exceeds 5, the correct label is label 1; where it does not, the label is label 0.

INSERT INTO results (compound, discrete_label) VALUES
  ('CC1CCCC(C)N1CCCCCN1C(=O)C(c2cccc(CN)c2)Oc2ccccc21 (stereo not given)', 'label 1'),
  ('CCCCCCN(CCCCCC)CCCCCN1C(=O)C(c2cccc(C(=N)N)c2)Oc2ccccc21 (stereo not given)', 'label 1'),
  ('CC1CCCC(C)N1CCCCCN1C(=O)C(c2ccccc2Cl)Oc2ccccc21 (stereo not given)', 'label 0'),
  ('CC1CCCC(C)N1CCCCCN1C(=O)C(c2ccccc2)Oc2ccccc21 (stereo not given)', 'label 0'),
  ('N=C(N)c1cccc(C2Oc3ccccc3N(CCCCCN3CCCCC3)C2=O)c1 (stereo not given)', 'label 1');

* * *

# reported pIC50; entries follow
EXPERIMENTAL TARGET: Serine protease 1 (Homo sapiens, UniProt P07477)
Sequence (P07477 whole entry): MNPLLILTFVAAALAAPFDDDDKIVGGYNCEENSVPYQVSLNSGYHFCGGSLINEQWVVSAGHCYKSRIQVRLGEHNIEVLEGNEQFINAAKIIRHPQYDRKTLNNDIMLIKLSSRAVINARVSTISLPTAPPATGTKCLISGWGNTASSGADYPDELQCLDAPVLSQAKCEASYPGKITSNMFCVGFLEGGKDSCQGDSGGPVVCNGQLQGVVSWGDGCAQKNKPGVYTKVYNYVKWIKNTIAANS
MEASUREMENT PROTOCOL: In vitro inhibitory activity against trypsin
pIC50: −log10 of the molar value.
QUANTITY: pIC50

INSERT INTO assay_data (compound, quantity, test_result) VALUES
  ('CC1CCCC(C)N1CCCCCN1C(=O)C(c2ccccc2Cl)Oc2ccccc21 (configuration not stated)', 'pIC50', 4.41),
  ('CC1CCCC(C)N1CCCCCCN1C(=O)C(c2cccc(C(=N)N)c2)Oc2ccccc21 (configuration not stated)', 'pIC50', 5.68),
  ('CC(C)N(CCCCCN1C(=O)C(c2cccc(C(=N)N)c2)Oc2ccccc21)C(C)C (configuration not stated)', 'pIC50', 5.92),
  ('CCCCCCN(CCCCCC)CCCCCN1C(=O)C(c2cccc(C(=N)N)c2)Oc2ccccc21 (configuration not stated)', 'pIC50', 5.60),
  ('N=C(N)c1cccc(C2Oc3ccccc3N(CCCCCN3CCOCC3)C2=O)c1 (configuration not stated)', 'pIC50', 5.96),
  ('N=C(N)c1cccc(C2Oc3ccccc3N(CCCCCN)C2=O)c1 (configuration not stated)', 'pIC50', 5.37),
  ('CC1CCCC(C)N1CCCCCN1C(=O)C(c2cccc(CN)c2)Oc2ccccc21 (configuration not stated)', 'pIC50', 5.11);

* * *

EXPERIMENTAL TARGET: Plasminogen (Homo sapiens, UniProt P00747)
Sequence (P00747 97-580 limits assumed): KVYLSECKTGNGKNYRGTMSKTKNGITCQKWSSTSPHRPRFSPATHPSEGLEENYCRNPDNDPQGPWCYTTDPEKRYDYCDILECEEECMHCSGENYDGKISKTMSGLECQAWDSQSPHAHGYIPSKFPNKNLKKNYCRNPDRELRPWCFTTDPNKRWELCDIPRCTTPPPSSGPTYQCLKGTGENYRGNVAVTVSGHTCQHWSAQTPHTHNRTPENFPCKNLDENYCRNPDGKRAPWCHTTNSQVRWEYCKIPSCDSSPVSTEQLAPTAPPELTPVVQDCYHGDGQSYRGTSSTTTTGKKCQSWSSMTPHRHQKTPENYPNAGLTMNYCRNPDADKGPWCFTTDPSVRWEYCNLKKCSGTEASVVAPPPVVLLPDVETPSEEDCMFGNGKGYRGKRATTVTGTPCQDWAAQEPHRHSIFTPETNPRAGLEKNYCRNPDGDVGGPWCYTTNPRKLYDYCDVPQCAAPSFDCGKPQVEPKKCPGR
Sequence (P00747 581-810 limits assumed): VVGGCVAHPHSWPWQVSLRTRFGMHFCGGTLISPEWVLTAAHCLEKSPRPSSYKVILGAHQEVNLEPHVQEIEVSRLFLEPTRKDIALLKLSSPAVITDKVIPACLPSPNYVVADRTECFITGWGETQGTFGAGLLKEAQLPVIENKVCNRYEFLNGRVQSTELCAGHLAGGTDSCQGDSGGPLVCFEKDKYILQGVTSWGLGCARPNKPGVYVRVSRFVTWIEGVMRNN
MEASUREMENT PROTOCOL: Inhibition of plasmin at 100 uM
Where inhibition equals or exceeds 30%, the correct label is Yes; where it does not, the label is No.

INSERT INTO results (compound, discrete_label) VALUES
  ('CC1CCCC(C)N1CCCCCN1C(=O)C(c2ccc(C(=N)N)cc2)Oc2ccccc21 (configuration not stated)', 'Yes'),
  ('CC1CCCC(C)N1CCCCCN1C(=O)C(c2ccc(Cl)c(Cl)c2)Oc2ccccc21 (configuration not stated)', 'No'),
  ('Cc1ccc(C2Oc3ccccc3N(CCCCCN3C(C)CCCC3C)C2=O)cc1 (configuration not stated)', 'No'),
  ('CC1CCCC(C)N1CCCCCN1C(=O)C(c2cccc(C(=N)NO)c2)Oc2ccccc21 (configuration not stated)', 'No'),
  ('CC1CCCC(C)N1CCCCCN1C(=O)C(c2cccc(C(=N)S)c2)Oc2ccccc21 (configuration not stated)', 'No'),
  ('CC1CCCC(C)N1CCCCCN1C(=O)C(c2ccccc2Cl)Oc2ccccc21 (configuration not stated)', 'No'),
  ('COc1cc(C2Oc3ccccc3N(CCCCCN3C(C)CCCC3C)C2=O)cc(OC)c1OC (configuration not stated)', 'No'),
  ('CC1CCCC(C)N1CCCCCN1C(=O)C(c2ccc(C(=N)S)cc2)Oc2ccccc21 (configuration not stated)', 'Yes'),
  ('COc1ccc(C2Oc3ccccc3N(CCCCCN3C(C)CCCC3C)C2=O)cc1 (configuration not stated)', 'No'),
  ('COc1ccc(C2Oc3ccccc3N(CCCCCN3C(C)CCCC3C)C2=O)cc1OC (configuration not stated)', 'No'),
  ('CC1CCCC(C)N1CCCCCN1C(=O)C(c2ccc(C(=N)NO)cc2)Oc2ccccc21 (configuration not stated)', 'No');
